Each record here notes measured solubility thermodynamic at 10 s.
Experiment: Maximal solubility in buffered solution
Format: physicochemical
Settings: phosphate buffer, aqueous buffer; maximal solubility from solid (0.5 mg portions into 1 mL until precipitate); 50 mM aqueous Na2HPO4 pH 7.4; centrifuged 10 000 rpm 1 h 4 °C; supernatant by UV/vis absorbance
*1 amine or outer side, *2 acyl side, *3 side chain or, on linkers, in order; H or OH if unused. Where a SMILES comes first, the peptide text is derived from it. [ ]: non-standard residue; d: D form. X1 = O=C(c1cccc(N=Nc2ccc(CN[*:1])cc2)c1)[*:2]
# number only, unit µM dropped from output

Solved entries:
- molecule: "CC(C)C[C@H](NC(=O)[C@H](C)NC(=O)[C@@H](NC(=O)[C@H](Cc1ccccc1)NC(=O)[C@H](CC(N)=O)NC(=O)[C@H](Cc1c[nH]cn1)NC(=O)[C@@H](NC(=O)c1cccc(N=Nc2ccc(CNC(=O)[C@H](CCC(N)=O)NC(=O)[C@H](CC(C)C)NC(=O)[C@H](CCCCN)NC(=O)[C@H](CCCCN)NC(=O)[C@@H](N)CCCNC(=N)N)cc2)c1)C(C)C)C(C)C)C(=O)O [P3] (H-RKKLQ[X1]VHNFVAL-OH)"
  solubility thermodynamic at 10 s (µM): 35
- molecule: "CC(C)C[C@H](NC(=O)[C@H](C)NC(=O)[C@@H](NC(=O)[C@H](Cc1ccccc1)NC(=O)[C@H](CC(N)=O)NC(=O)[C@H](Cc1c[nH]cn1)NC(=O)c1cccc(N=Nc2ccc(CNC(=O)[C@H](CC(=O)O)NC(=O)[C@H](CCC(N)=O)NC(=O)[C@H](CC(C)C)NC(=O)[C@H](CCCCN)NC(=O)[C@H](CCCCN)NC(=O)[C@@H](N)CCCNC(=N)N)cc2)c1)C(C)C)C(=O)O [P4] (H-RKKLQD[X1]HNFVAL-OH)"
  solubility thermodynamic at 10 s (µM): 370

Now consider the entry below.
Need solubility thermodynamic at 10 s of CC(C)C[C@H](NC(=O)[C@H](C)NC(=O)[C@@H](NC(=O)[C@H](Cc1ccccc1)NC(=O)[C@H](CC(N)=O)NC(=O)[C@H](Cc1c[nH]cn1)NC(=O)[C@@H](NC(=O)[C@H](CC(=O)O)NC(=O)[C@H](CCC(N)=O)NC(=O)[C@H](CC(C)C)NC(=O)[C@H](CCCCN)NC(=O)c1cccc(N=Nc2ccc(CNC(=O)[C@H](CCCCN)NC(=O)[C@@H](N)CCCNC(=N)N)cc2)c1)C(C)C)C(C)C)C(=O)O [P8] (H-RK[X1]KLQDVHNFVAL-OH) , thanks.
200

Data origin: paper PMC11261605
